# EXPERIMENTAL_SYSTEM: ATP-dependent translocase ABCB1 (Homo sapiens, UniProt P08183)
# Sequence (P08183 whole entry): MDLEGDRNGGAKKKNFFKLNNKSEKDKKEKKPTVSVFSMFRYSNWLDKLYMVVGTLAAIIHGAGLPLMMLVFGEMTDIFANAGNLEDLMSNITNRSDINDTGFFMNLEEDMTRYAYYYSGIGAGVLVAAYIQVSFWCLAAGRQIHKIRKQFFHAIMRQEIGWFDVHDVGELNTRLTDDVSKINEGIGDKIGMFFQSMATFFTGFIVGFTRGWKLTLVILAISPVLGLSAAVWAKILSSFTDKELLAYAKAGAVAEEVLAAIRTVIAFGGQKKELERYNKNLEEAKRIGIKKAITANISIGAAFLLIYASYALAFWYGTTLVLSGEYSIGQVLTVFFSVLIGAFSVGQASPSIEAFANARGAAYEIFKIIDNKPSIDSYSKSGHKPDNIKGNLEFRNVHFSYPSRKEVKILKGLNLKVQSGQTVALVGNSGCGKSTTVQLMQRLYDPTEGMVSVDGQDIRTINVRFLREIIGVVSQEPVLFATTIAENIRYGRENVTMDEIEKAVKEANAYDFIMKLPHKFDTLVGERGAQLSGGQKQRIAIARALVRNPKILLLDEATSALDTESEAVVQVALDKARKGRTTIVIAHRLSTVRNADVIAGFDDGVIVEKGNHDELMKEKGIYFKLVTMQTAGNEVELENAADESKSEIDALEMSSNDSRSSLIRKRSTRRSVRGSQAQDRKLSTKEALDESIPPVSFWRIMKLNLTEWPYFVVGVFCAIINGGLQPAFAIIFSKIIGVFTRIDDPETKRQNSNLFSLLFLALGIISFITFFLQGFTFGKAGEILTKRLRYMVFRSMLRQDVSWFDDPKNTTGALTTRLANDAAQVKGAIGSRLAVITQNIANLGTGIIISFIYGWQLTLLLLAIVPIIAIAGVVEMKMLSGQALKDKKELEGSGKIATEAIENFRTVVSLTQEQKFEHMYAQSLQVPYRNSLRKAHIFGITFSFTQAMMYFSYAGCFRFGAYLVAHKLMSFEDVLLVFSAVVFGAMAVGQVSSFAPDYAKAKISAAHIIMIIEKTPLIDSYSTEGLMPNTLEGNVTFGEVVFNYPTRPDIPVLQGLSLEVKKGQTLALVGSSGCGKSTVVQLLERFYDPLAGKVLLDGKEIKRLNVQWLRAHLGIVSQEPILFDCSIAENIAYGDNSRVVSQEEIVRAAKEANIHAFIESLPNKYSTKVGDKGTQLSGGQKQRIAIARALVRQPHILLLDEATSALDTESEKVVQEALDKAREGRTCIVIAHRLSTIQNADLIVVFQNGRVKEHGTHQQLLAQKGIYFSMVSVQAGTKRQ
# METHOD_SUMMARY: Inhibition of human Pgp-mediated rhodamine 123 efflux expressed in mouse L5178Y cells assessed as fluorescence activity ratio at 20 uM after 10 mins by flow cytometric analysis
# Assay type: cell-based
OBSERVABLE: Ratio

Some solved cases for reference:
1) CCCC(=O)O[C@H]1[C@@H](C)C[C@]2(OC(C)=O)C(=O)/C(C)=C/[C@@H]3[C@H](CC/C(C)=C/[C@@H]12)C3(C)C [JOLKINOATE C] = 107.89
2) CC(=O)O[C@]12C[C@H](C)[C@H](O)[C@@H]1/C=C(\C)CC[C@H]1[C@@H](/C=C(\C)C2=O)C1(C)C = 0.92
3) CCC(=O)O[C@H]1[C@@H](C)C[C@]2(OC(C)=O)C(=O)/C(C)=C/[C@@H]3[C@H](CC/C(C)=C/[C@@H]12)C3(C)C [JOLKINOATE B] = 30.64
4) CC(=O)O[C@]12C[C@H](C)[C@H](OC(=O)c3cccc(C(F)(F)F)c3)[C@@H]1/C=C(\C)CC[C@H]1[C@@H](/C=C(\C)C2=O)C1(C)C [JOLKINOATE L] = 28.66
5) CC(=O)O[C@]12C[C@H](C)[C@H](OC(=O)c3ccc(C)cc3)[C@@H]1/C=C(\C)CC[C@H]1[C@@H](/C=C(\C)C2=O)C1(C)C [JOLKINOATE J] = 56.88
6) COc1ccc(C(=O)O[C@H]2[C@@H](C)C[C@]3(OC(C)=O)C(=O)/C(C)=C/[C@@H]4[C@H](CC/C(C)=C/[C@@H]23)C4(C)C)cc1 [JOLKINOATE K] = 109.17
7) CCCCC(CC)C(=O)O[C@H]1[C@@H](C)C[C@]2(OC(C)=O)C(=O)/C(C)=C/[C@@H]3[C@H](CC/C(C)=C/[C@@H]12)C3(C)C (stereo partly specified) [JOLKINOATE G] = 52.66
8) C/C1=C\[C@H]2[C@@H](O)[C@@H](C)C[C@]2(O)C(=O)/C(C)=C/[C@@H]2[C@H](CC1)C2(C)C = 3.38

[1] CC(=O)O[C@]12C[C@H](C)[C@H](OS(=O)(=O)c3ccccc3)[C@@H]1/C=C(\C)CC[C@H]1[C@@H](/C=C(\C)C2=O)C1(C)C [JOLKINOATE M]
[2] CCCC(C)C(=O)O[C@H]1[C@@H](C)C[C@]2(OC(C)=O)C(=O)/C(C)=C/[C@@H]3[C@H](CC/C(C)=C/[C@@H]12)C3(C)C (stereo partly specified) [JOLKINOATE E]
Between these two entries, 1 and 2 , state which has the higher Ratio. Kindly give the label for the entry you pick. 1

====

# EXPERIMENTAL_SYSTEM: ATP-dependent translocase ABCB1 (Homo sapiens)
# METHOD_SUMMARY: Inhibition of human Pgp-mediated rhodamine 123 efflux expressed in mouse L5178Y cells assessed as reversal of chemoresistance after 10 mins by flow cytometric analysis
# Format: cell-based
OBSERVABLE: inhibition (INH)

1) CC(=O)O[C@]12C[C@H](C)[C@H](OS(=O)(=O)c3ccccc3)[C@@H]1/C=C(\C)CC[C@H]1[C@@H](/C=C(\C)C2=O)C1(C)C [JOLKINOATE M] = Dose-dependent effect
2) CC(=O)O[C@]12C[C@H](C)[C@H](OC(=O)c3ccc(C)cc3)[C@@H]1/C=C(\C)CC[C@H]1[C@@H](/C=C(\C)C2=O)C1(C)C [JOLKINOATE J] = Dose-dependent effect
3) CC(=O)O[C@]12C[C@H](C)[C@H](OC(=O)c3ccccc3)[C@@H]1/C=C(\C)CC[C@H]1[C@@H](/C=C(\C)C2=O)C1(C)C [JOLKINOATE I] = Dose-dependent effect
4) COc1ccc(C(=O)O[C@H]2[C@@H](C)C[C@]3(OC(C)=O)C(=O)/C(C)=C/[C@@H]4[C@H](CC/C(C)=C/[C@@H]23)C4(C)C)cc1 [JOLKINOATE K] = Dose-dependent effect
